Attribution: the RNAGym collection of RNA variant scans (doi:10.1073/pnas.2313332121)

B1: TPR 5TU (parent)
chain: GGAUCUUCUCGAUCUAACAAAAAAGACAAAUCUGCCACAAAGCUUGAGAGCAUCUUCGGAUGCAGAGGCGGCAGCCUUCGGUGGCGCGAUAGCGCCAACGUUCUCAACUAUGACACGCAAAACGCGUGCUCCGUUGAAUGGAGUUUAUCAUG

# Variants of: B1
# assay.text: polymerase ribozyme fitness, log enrichment relative to wild type (log ratio); higher = more active; in vitro selection for triplet polymerase activity
This sample holds only a part of the variants without activity.
recorded.endpoint: polymerase ribozyme fitness (log ratio)

Look over these answered cases.
> print(dat)
                       sequence.change  endpoint.value
1                 A23U U44A U55A A122U          ≤ -4.2
2  C10A G58C A66U G80A C95U C96U U144G          ≤ -4.2
3                            U55G G68U           -3.91
4      G25C C75U A91G C99A G124U U134A          ≤ -4.2
5         G94A U101C G136C A137G U151A          ≤ -4.2

Each variant below has a reported value. Please supply its polymerase ribozyme fitness (log ratio).
1. A19G U78G C87G A98U U101G G126A
2. U31A A39G G94U
3. G25U U61G A66C C87U A137G
4. A49G A52C U56A A91G G92A A121G

Output line:
1: ≤ -4.2; 2: -2.07; 3: ≤ -4.2; 4: -3.9
